We begin with a simple list: items and their reported pEC50.
assay_target: human 5-HT4 receptor (Homo sapiens, UniProt Q13639)
Construct: expressed in transfected cells; host or cells: cardiomyocytes of transgenic mice (alpha-myosin heavy chain promoter); isolated left and right atria and Langendorff-perfused hearts
Sequence (Q13639 1-387 isoform Q13639-2): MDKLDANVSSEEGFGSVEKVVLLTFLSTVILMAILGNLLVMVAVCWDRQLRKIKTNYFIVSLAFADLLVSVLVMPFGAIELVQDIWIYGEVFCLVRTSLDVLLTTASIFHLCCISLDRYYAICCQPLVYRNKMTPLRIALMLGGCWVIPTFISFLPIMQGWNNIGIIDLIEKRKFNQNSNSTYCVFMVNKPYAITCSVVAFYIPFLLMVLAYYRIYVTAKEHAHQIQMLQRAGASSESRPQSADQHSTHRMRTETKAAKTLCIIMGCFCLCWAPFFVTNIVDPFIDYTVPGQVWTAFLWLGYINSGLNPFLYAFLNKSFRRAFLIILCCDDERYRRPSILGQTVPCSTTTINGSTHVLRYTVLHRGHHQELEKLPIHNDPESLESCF
assay_explanation: Isolated electrically stimulated (1 Hz) left atrial preparations from 5-HT4-TG mice, organ bath contractility
Set-up: species or system human (expressed in cardiomyocytes of transgenic mice)
conditions: pD2, dF/dtmin, left atrium of 5-HT4-TG
Please express pEC50 as -log10 of the molar concentration.

> print(dat)
                                   compound   val
1  NCCc1c[nH]c2ccccc12 [Tryptamine, tryptamine]  4.73

Now consider the entry below.
Exercise: Entry CN(C)CCc1c[nH]c2ccc(O)cc12 [Bufotenin, 5-hydroxy-N,N-dimethyl-tryptamine] needs its pEC50 filled in; supply it.
Key: 6.92

###

assay_target: human 5-HT4 receptor (Homo sapiens)
Construct: expressed in transfected cells; host or cells: cardiomyocytes of transgenic mice (alpha-myosin heavy chain promoter); isolated left and right atria and Langendorff-perfused hearts
assay_explanation: Isolated electrically stimulated (1 Hz) left atrial preparations from 5-HT4-TG mice, organ bath contractility
Design: species or system human (expressed in cardiomyocytes of transgenic mice)
conditions: pD2 (negative decadic logarithm of EC50), force of contraction, left atrium of 5-HT4-TG
assay_endpoint: EC50
Number first, unit second.

> print(dat)
              compound  assay.endpoint      val
1  NCCc1c[nH]c2ccccc12            EC50  26.9 µM

Exercise: Entry CN(C)CCc1c[nH]c2ccc(O)cc12 [Bufotenin, 5-hydroxy-N,N-dimethyl-tryptamine] needs its EC50 filled in; supply it.
Key: 0.17 µM

###

assay_target: human 5-HT4 receptor (Homo sapiens)
Construct: expressed in transfected cells; host or cells: cardiomyocytes of transgenic mice (alpha-myosin heavy chain promoter); isolated left and right atria and Langendorff-perfused hearts
assay_explanation: Isolated electrically stimulated (1 Hz) left atrial preparations from 5-HT4-TG mice, organ bath contractility
Design: species or system human (expressed in cardiomyocytes of transgenic mice)
conditions: pD2, time of relaxation (TR), left atrium of 5-HT4-TG
assay_endpoint: EC50 (nM)
Write the answer as a number in nM, unit excluded.

> print(dat)
                                   compound  assay.endpoint  val
1  CN(C)CCc1c[nH]c2ccc(O)cc12 [Bufotenin, 5-hydroxy-N,N-dimethyl-tryptamine]            EC50  490

Exercise: Entry NCCc1c[nH]c2ccccc12 needs its EC50 filled in; supply it.
Key: 2880
